Value source: the DeepSol protein solubility set

Assay: soluble on expression in E. coli; label from the status in PepcDB or PDB records
Value Kind: soluble on expression in E. coli

Chain Sequence	Recorded Value
MKLSKDTIAILKNFASINSGILLSQGKFIMTRAVNGTTYAEANISDEIDFDVALYDLNSFLSILSLVSDDAEISMHTDGNIKIADTRSTVYWPAADKSTIVFPNKPIQFPVASVITEIKAEDLQQLLRVSRGLQIDTIAITNKDGKIVINGYNKVEDSGLTRPKYSLTLTDYDGSNNFNFVINMANMKIQPGNYKVMLWGAGDKVAAKFESSQVSYVIAMEADSTHDF	soluble
MSLSYRIDVLLFNKFETLDVFGPVEIFGNLQDDFELNFISSDGGLVESSQKVRVETSLYTRDENIEKILFVPGGSGTREKVNDDNFINFIGNMVKESKYIISVCTGSALLSKAGILNGKRATTNKRSFKWVTEQNEDVLWVKEARWVKDGNIYTSSGVSAGIDMTLGFIEDLIGKEKALEISRSIEYFWNEDSNYDPFSKIYGEGHHHHHH	soluble
